Molecular target: T1, EsCas13d, nuclease-dead (Eubacterium siraeum, UniProt B0MS50, R295A;H300A;R849A;H854A)
T1 sequence: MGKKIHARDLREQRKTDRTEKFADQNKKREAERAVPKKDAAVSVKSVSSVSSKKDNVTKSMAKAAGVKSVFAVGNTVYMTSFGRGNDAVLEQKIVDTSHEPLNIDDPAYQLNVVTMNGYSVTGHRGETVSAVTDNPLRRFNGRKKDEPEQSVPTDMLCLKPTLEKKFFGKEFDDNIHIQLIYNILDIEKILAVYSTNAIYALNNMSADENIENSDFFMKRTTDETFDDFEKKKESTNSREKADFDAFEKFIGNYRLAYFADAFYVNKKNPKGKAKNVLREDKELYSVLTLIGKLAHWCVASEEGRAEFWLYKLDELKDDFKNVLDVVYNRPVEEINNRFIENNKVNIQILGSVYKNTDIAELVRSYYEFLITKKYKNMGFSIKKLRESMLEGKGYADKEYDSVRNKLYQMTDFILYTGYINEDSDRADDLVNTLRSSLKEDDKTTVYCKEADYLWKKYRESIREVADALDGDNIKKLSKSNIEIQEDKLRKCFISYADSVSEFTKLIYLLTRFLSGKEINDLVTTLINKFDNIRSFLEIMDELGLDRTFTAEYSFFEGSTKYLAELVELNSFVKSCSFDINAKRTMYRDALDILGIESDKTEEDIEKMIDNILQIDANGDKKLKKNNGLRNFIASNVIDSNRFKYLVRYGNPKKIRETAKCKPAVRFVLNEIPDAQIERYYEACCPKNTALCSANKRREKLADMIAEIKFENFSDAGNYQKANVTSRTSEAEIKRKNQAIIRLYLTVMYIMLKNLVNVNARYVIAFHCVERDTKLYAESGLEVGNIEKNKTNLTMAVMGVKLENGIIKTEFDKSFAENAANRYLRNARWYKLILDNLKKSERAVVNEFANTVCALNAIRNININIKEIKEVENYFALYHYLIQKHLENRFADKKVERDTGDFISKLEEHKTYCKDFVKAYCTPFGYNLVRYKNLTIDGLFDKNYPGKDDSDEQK
Experiment: crRNA (strand 1, pre-loaded); Mg2+; 40 mM Tris-HCl pH 7.5, 150 mM NaCl, 6 mM MgCl2, 1 mM DTT, 0.1% Tween-20, 0.2 mg/ml BSA; 25 C; 10 min per concentration, then washed
Conditions: tags: His6-TwinStrep-SUMO cleaved; N-terminal SNAP kept (SNAP-Surface 488); label: 3' end held by stalled T7 RNA polymerase
This listing pairs binders with measured Kd.
Report the figure in nM without appending any unit label.

Recorded Kd, per entry:
{"Binder": "target 2 MT 5'PFS GCG 3'PFS UAC (mixed) RNA 1: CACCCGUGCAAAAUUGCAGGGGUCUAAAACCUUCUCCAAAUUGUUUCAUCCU RNA 2: GGGAAUGGAUCCACAUCUACGAAUUCGCGAGGAUGAAACAAUUUGGAGAAGUACAGAUCGGAAGAGCACACGU", "Kd (nM)": 13.1}
{"Binder": "target 1 insC 3' of 17,insA 3' of 5 (mixed) RNA 1: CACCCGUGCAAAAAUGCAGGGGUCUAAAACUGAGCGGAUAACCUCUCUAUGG RNA 2: GGGAAUGGAUCCACAUCUACGAAUUCGUACCAUAGCAGAGGUUAUCCGACUCACCGAGAUCGGAAGAGCACACGU", "Kd (nM)": 23}
{"Binder": "target 1 insG 3' of 11,insG 3' of 7 (mixed) RNA 1: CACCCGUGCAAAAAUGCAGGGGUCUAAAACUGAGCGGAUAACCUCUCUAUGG RNA 2: GGGAAUGGAUCCACAUCUACGAAUUCGUACCAUAGAGAGGUGUAUCGCGCUCACCGAGAUCGGAAGAGCACACGU", "Kd (nM)": 17.2}

Consider the record given below.
Could you share which Kd value was measured for target 2 MT 5'PFS CAU 3'PFS UCU (mixed) RNA 1: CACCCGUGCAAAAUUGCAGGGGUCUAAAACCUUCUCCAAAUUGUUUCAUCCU RNA 2: GGGAAUGGAUCCACAUCUACGAAUUCCAUAGGAUGAAACAAUUUGGAGAAGUCUAGAUCGGAAGAGCACACGU ?
4.7
